Molecular target: T1, P2-AA
T1 chain: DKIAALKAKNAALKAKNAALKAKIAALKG
Assay: two-hybrid library CCmax;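 note: natural log of median RNA to DNA barcode read ratio; higher means stronger binding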
Details: mean of both orientations
Endpoint: interaction score
API doc: respond with a numeric literal and nothing else, no unit.

Please review the following examples before continuing.
DKLAAAKAEIAALEAELAANEAKKAALKG [AP8-AA]
-1.71
DEIAALEAETAALEAENAALEAEIAALEG [P1-AA-1HAA-T]
1.88
DEIAALEAEDAALEAEDAALEAEIAALEG [P1-AA-12HAA-D]
-0.884

Looking up DEIAALEAEVAALEAENAALEAEIAALEG [P1-AA-1HAA-V] , I found its interaction score recorded as 2.01

Entry source: paper PMC10397247
